Molecular target: T1, H-2Dd (mouse)
T1 chain 1: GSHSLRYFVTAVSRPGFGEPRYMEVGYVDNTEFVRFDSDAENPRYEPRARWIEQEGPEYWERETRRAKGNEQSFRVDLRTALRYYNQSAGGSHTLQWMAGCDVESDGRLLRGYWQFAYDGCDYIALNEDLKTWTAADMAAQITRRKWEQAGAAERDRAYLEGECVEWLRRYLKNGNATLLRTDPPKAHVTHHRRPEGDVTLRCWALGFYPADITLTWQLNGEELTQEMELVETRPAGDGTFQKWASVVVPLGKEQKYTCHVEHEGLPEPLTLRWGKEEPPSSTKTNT
T1 chain 2: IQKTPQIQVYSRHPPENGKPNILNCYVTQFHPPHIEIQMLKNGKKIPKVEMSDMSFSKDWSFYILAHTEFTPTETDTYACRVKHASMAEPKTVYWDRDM
Test: competition
Settings: modification not given
quantity-measured: IC50 (nM)
Write down the numeric answer in nM and omit the unit.

Some binders with recorded IC50:
binder | unit-string | IC50
WGPSLYSIL [17.0381] | nM | 6.6
WGPSLYSI [17.0003] | nM | 17
GGAYRLIVF [1476.18] | nM | 3.5

Give its IC50 value. Item: FSPRRNGYL [1476.21]
2.7
